Values were extracted from ChEMBL document CHEMBL1255438.

Give MIC90 for every item shown.
system: Staphylococcus aureus; assay: Antimicrobial activity against oxacillin-susceptible Staphylococcus aureus by CLSI method; type: functional
# unit: µg/mL | format: bare number

Any idea what its MIC90 is? The compound is CC(=O)NC[C@H]1CN(c2ccc(N3CCOCC3)c(F)c2)C(=O)O1
2

May I ask what MIC90 has been recorded for Cn1nnc(-c2ccc(-c3ccc(N4C[C@H](CO)OC4=O)cc3F)cn2)n1 ?
0.25

// query MIC90 value for entry CCCCCCCCCC(=O)N[C@@H](Cc1c[nH]c2ccccc12)C(=O)N[C@H](CC(N)=O)C(=O)N[C@@H](CC(=O)O)C(=O)N[C@@H]1C(=O)NCC(=O)N[C@@H](CCCN)C(=O)N[C@@H](CC(=O)O)C(=O)N[C@H](C)C(=O)N[C@@H](CC(=O)O)C(=O)NCC(=O)N[C@H](CO)C(=O)N[C@@H]([C@H](C)CC(=O)O)C(=O)N[C@@H](CC(=O)c2ccccc2N)C(=O)O[C@@H]1C
0.5

Which MIC90 is reported for this compound? CN[C@H](CC(C)C)C(=O)N[C@H]1C(=O)N[C@@H](CC(N)=O)C(=O)N[C@H]2C(=O)N[C@H]3C(=O)N[C@H](C(=O)N[C@H](C(=O)O)c4cc(O)cc(O)c4-c4cc3ccc4O)[C@H](O)c3ccc(c(Cl)c3)Oc3cc2cc(c3O[C@@H]2O[C@H](CO)[C@@H](O)[C@H](O)[C@H]2O[C@H]2C[C@](C)(N)[C@H](O)[C@H](C)O2)Oc2ccc(cc2Cl)[C@H]1O
1

* * *

tested on: Staphylococcus; assay: Antimicrobial activity against oxacillin-resistant coagulase-negative Staphylococcus aureus by CLSI method; type: functional
Task for the reader: assign each of the following molecules its reported MIC90.
Write it as a number; the unit µg/mL goes unstated.

# query: MIC90 of entry CC(=O)N[C@@H]1[C@H](Oc2c3cc4cc2Oc2ccc(cc2Cl)[C@@H](O[C@@H]2O[C@@H](CO)[C@@H](O)[C@H](O)[C@@H]2NC(C)=O)[C@@H]2NC(=O)[C@H](NC(=O)[C@@H]4NC(=O)[C@H]4NC(=O)[C@@H](Cc5ccc(c(Cl)c5)O3)NC(=O)[C@H](N)c3ccc(O)c(c3)Oc3cc(O)cc4c3)c3ccc(O)c(c3)-c3c(O[C@H]4O[C@H](CO)[C@@H](O)[C@@H](O)[C@@H]4O)cc(O)cc3[C@@H](C(=O)O)NC2=O)O[C@@H](CO)[C@@H](O)[C@@H]1O
8

So what does the record say about MIC90 for CCCCCCCCCC(=O)N[C@@H](Cc1c[nH]c2ccccc12)C(=O)N[C@H](CC(N)=O)C(=O)N[C@@H](CC(=O)O)C(=O)N[C@@H]1C(=O)NCC(=O)N[C@@H](CCCN)C(=O)N[C@@H](CC(=O)O)C(=O)N[C@H](C)C(=O)N[C@@H](CC(=O)O)C(=O)NCC(=O)N[C@H](CO)C(=O)N[C@@H]([C@H](C)CC(=O)O)C(=O)N[C@@H](CC(=O)c2ccccc2N)C(=O)O[C@@H]1C ?
0.5

# get_value(readout='MIC90', item= CN[C@H](CC(C)C)C(=O)N[C@H]1C(=O)N[C@@H](CC(N)=O)C(=O)N[C@H]2C(=O)N[C@H]3C(=O)N[C@H](C(=O)N[C@H](C(=O)O)c4cc(O)cc(O)c4-c4cc3ccc4O)[C@H](O)c3ccc(c(Cl)c3)Oc3cc2cc(c3O[C@@H]2O[C@H](CO)[C@@H](O)[C@H](O)[C@H]2O[C@H]2C[C@](C)(N)[C@H](O)[C@H](C)O2)Oc2ccc(cc2Cl)[C@H]1O )
2

Look up MIC90: CC(=O)NC[C@H]1CN(c2ccc(N3CCOCC3)c(F)c2)C(=O)O1
2

# query: MIC90 of entry Cn1nnc(-c2ccc(-c3ccc(N4C[C@H](CO)OC4=O)cc3F)cn2)n1
0.25
